Each recorded value in this set is attributed to ChEMBL document CHEMBL1158495.

pIC50: −log10 of the molar value.
pIC50, Human immunodeficiency virus type 1 integrase (Human immunodeficiency virus 1): measured values
Quantity Name: pIC50

O=C(O)Cn1cc(C(=O)O)c(=O)c2cc(Cc3cccc(Cl)c3Cl)ccc21 7.49
O=C(O)c1c[nH]c2ccc(Cc3ccccc3F)cc2c1=O 6.30

[I] O=C(O)CCn1cc(C(=O)O)c(=O)c2cc(Cc3cccc(Cl)c3Cl)ccc21
[II] O=C(O)c1cn([C@H](CO)C2CCCCC2)c2ccc(Cc3cccc(Cl)c3F)cc2c1=O
Between item I and item II , which reported pIC50 is smaller? Please respond with the label that marks your chosen entry.
I

###

test: Cytotoxicity against human MT4 cells after 5 days by MTT assay; format: cell-based
Quantity Name: CC50 at 120 h

Cc1cc2c(cc1Cc1cccc(Cl)c1Cl)c(=O)c(C(=O)O)cn2CCO > 30 µM
O=C(O)c1cn(CCO)c2cc(Cl)c(Cc3cccc(Cl)c3Cl)cc2c1=O > 6 µM
Cn1cc(C(=O)O)c(=O)c2cc(Cc3ccccc3)ccc21 > 30 µM
NC(=O)c1c[nH]c2ccc(Cc3ccccc3)cc2c1=O > 30 µM
O=C(O)c1cn(CCO)c2c(F)cc(Cc3cccc(Cl)c3Cl)cc2c1=O > 30 µM
O=C(O)Cn1cc(C(=O)O)c(=O)c2cc(Cc3cccc(Cl)c3Cl)ccc21 > 30 µM
O=C(O)c1c[nH]c2ccc(Cc3ccccc3Cl)cc2c1=O > 6 µM
O=C(O)c1c[nH]c2ccc(Cc3ccc(Cl)cc3)cc2c1=O > 6 µM

Query O=C(O)c1cn(CCO)c2ccc(Cc3cccc(Cl)c3Cl)cc2c1=O yields CC50 at 120 h of > 6 µM

Query O=C(O)c1c[nH]c2ccc(Cc3ccccc3F)cc2c1=O yields CC50 at 120 h of > 30 µM

Query O=C(O)c1cnc2ccc(Cc3ccccc3)cc2c1O yields CC50 at 120 h of > 30 µM
